- assay_name: Membrane permeability test using Caco-2 cells with preincubation
- Assay type: in vitro ADME
- run_conditions: Caco-2; preincubation 20 to 24 hours; Apical FaSSIF/HBSS pH 6.0, Basal HBSS 4% BSA pH 7.4; 180 minutes; read-out: Caco2 Papp
Starred links: 1 amine or outer side, 2 acyl side, 3 side chain; linkers in the order of their positions; H or OH if unused. Non-standard residues stand in square brackets, D forms with d. Residues, ends and D or L forms follow the SMILES beside them. NMedβ3hAla = C[C@H](CC(=O)[*:2])N(C)[*:1]; NMeF = CN[C@@H](Cc1ccccc1)C(=O)O; NMeL = CN[C@@H](CC(C)C)C(=O)O; NMeAbu = CC[C@H](NC)C(=O)O; NMeA = CN[C@@H](C)C(=O)O; Abu = CC[C@H](N)C(=O)O; Sar = CNCC(=O)O
assay_metric: Papp A→B (×10⁻⁶ cm/s)
Express your answer in ×10⁻⁶ cm/s, writing the number without its unit.

Kindly indicate its recorded Papp A→B. Item: CC[C@@H]1NC(=O)[C@H](Cc2ccccc2)N(C)C(=O)[C@@H]2CCCN2C(=O)[C@H](CC(C)C)N(C)C(=O)[C@H](CC)NC(=O)[C@H](C(C)C)NC(=O)[C@H](CC(C)C)N(C)C(=O)[C@H]([C@@H](C)O)NC(=O)[C@H](Cc2ccccc2)N(C)C(=O)CN(C)C(=O)C[C@@H](C)N(C)C(=O)[C@H](C(C)C)NC(=O)[C@H](CC)N(C)C(=O)[C@H](C)N(C)C1=O [pd070] (cyclo([Abu][NMeA][NMeAbu]V[NMedβ3hAla][Sar][NMeF]T[NMeL]V[Abu][NMeL]P[NMeF])) 0.03

----------
- assay_name: Metabolic stability test: liver microsomal stability assay
- Assay type: in vitro ADME, mouse
- run_conditions: male, pH 7.4; mouse liver microsomes 0.5 mg protein/mL, compound 1 µM, presence of NADPH; read-out: Mouse Hepatic Microsome CLh,int NADPH(+)
- Method: Under the presence and absence of NADPH, a microsome solution prepared to a concentration of 0.5 mg protein/mL using 100 mM phosphate buffer (pH 7.4) with mouse liver microsomes (male, Corning Incorporated, USA) and the compound at a concentration of 1 µM were subjected to a metabolic reaction for 22 minutes, 44 minutes, or 66 minutes. […]
Starred links: 1 amine or outer side, 2 acyl side, 3 side chain; linkers in the order of their positions; H or OH if unused. Positions of bridges follow the written chain, without caps; N, C: chain ends. Non-standard residues stand in square brackets, D forms with d. Residues, ends and D or L forms follow the SMILES beside them. *: point of attachment. NMedβ3hAla = C[C@H](CC(=O)[*:2])N(C)[*:1]; NMeF = CN[C@@H](Cc1ccccc1)C(=O)O; NMeI = CC[C@H](C)[C@H](NC)C(=O)O; NMeT = CN[C@H](C(=O)O)[C@@H](C)O; hPhe = N[C@@H](CCc1ccccc1)C(=O)O; NMeβAla = CN(CCC(=O)[*:2])[*:1]; NMeD = CN[C@@H](CC(=O)O)C(=O)O; NMeL = CN[C@@H](CC(C)C)C(=O)O; NMeV = CN[C@H](C(=O)O)C(C)C; d(β3hA) = C[C@@H](N)CC(=O)O; NMeAbu = CC[C@H](NC)C(=O)O; NMeA = CN[C@@H](C)C(=O)O; Piperidide = C1CCN(*)CC1; dNMeA = CN[C@H](C)C(=O)O; Abu = CC[C@H](N)C(=O)O; NBuGly = CCCCNCC(=O)O; Sar = CNCC(=O)O; tBu = CC(C)(C)*
MET means recorded microsomal CLint at 1 µM is 20 µL/min/mg or above; NOT MET means it is below 20 µL/min/mg.

Some entries whose results are on file:
[
  {
    "compound": "CC[C@@H]1NC(=O)[C@H]([C@@H](C)CC)NC(=O)[C@H](Cc2ccccc2)N(C)C(=O)[C@H](CC(C)C)N(C)C(=O)[C@H](CC(C)C)NC(=O)CCN(C)C(=O)C[C@@H](C(=O)N2CCCCC2)NC(=O)[C@H](C(C)C)NC(=O)[C@H](CC(C)C)N(C)C(=O)[C@H](C)N(C)C(=O)[C@H](C(C)C)NC(=O)[C@H](CC(C)C)N(C)C(=O)[C@H](COC(C)(C)C)NC(=O)[C@H](Cc2ccccc2)N(C)C1=O [pd015] ([NMeβAla]L[NMeL][NMeF]I[Abu][NMeF]S(tBu)[NMeL]V[NMeA][NMeL]VD-Piperidide; lactam N-14)",
    "discrete_label": "MET"
  },
  {
    "compound": "CC[C@H](C)[C@@H]1NC(=O)[C@H]([C@@H](C)CC)N(C)C(=O)[C@@H](C)NC(=O)C[C@@H](C(=O)N2CCCCC2)N(C)C(=O)[C@H](Cc2ccccc2)N(C)C(=O)[C@H](C(C)C)NC(=O)[C@H](C)N(C)C(=O)[C@H](CC(C)C)N(C)C(=O)[C@H](C)NC(=O)CN(C)C(=O)[C@H](CC(C)C)N(C)C(=O)[C@H](C)N(C)C(=O)[C@H](Cc2ccccc2)N(C)C1=O [pd153] ([dA][NMeI]I[NMeF][NMeA][NMeL][Sar]A[NMeL][NMeA]V[NMeF][NMeD]-Piperidide; lactam N-13)",
    "discrete_label": "NOT MET"
  },
  {
    "compound": "CCCCN1CC(=O)N(C)[C@@H](Cc2ccccc2)C(=O)N[C@@H](CC(C)C)C(=O)N(C)[C@@H](C(C)C)C(=O)N(C)[C@@H](C)C(=O)N[C@@H](COC(C)(C)C)C(=O)N(C)[C@@H](CC)C(=O)N(C)[C@H](C(=O)N2CCCCC2)CC(=O)N(C)CC(=O)N(C)[C@@H](Cc2ccccc2)C(=O)N[C@@H]([C@@H](C)CC)C(=O)N(C)[C@@H](CC(C)C)C(=O)N(C)[C@@H]([C@@H](C)O)C1=O [pd168] ([Sar][NMeF]I[NMeL][NMeT][NBuGly][NMeF]L[NMeV][NMeA]S(tBu)[NMeAbu][NMeD]-Piperidide; lactam N-13)",
    "discrete_label": "MET"
  },
  {
    "compound": "CC[C@H]1C(=O)N(C)[C@@H](Cc2ccccc2)C(=O)N(C)[C@@H](CC(C)C)C(=O)N[C@@H](CC(C)C)C(=O)N(C)[C@@H](C(C)C)C(=O)N[C@H](C)CC(=O)N(C)CC(=O)N(C)[C@@H](C(C)C)C(=O)N(C)[C@@H](CC(C)C)C(=O)N(C)[C@@H](C)C(=O)N(C)[C@@H](CC(C)C)C(=O)N[C@@H]([C@@H](C)O)C(=O)N(C)CC(=O)N1C [pd140] (cyclo(L[NMeV][d(β3hA)][Sar][NMeV][NMeL][NMeA][NMeL]T[Sar][NMeAbu][NMeF][NMeL]))",
    "discrete_label": "NOT MET"
  },
  {
    "compound": "CC[C@H]1C(=O)N(C)[C@H](C)CC(=O)N(C)[C@H](C)C(=O)N(C)[C@@H](C)C(=O)N(C)[C@@H](Cc2ccccc2)C(=O)N[C@@H](C(C)C)C(=O)N(C)[C@@H](CC(C)C)C(=O)N(C)[C@@H]([C@@H](C)O)C(=O)N(C)CC(=O)N[C@@H](C)C(=O)N(C)[C@@H](CC(C)C)C(=O)N[C@@H](COC(C)(C)C)C(=O)N(C)[C@@H](Cc2ccccc2)C(=O)N1C [pd150] (cyclo(A[NMeL]S(tBu)[NMeF][NMeAbu][NMedβ3hAla][dNMeA][NMeA][NMeF]V[NMeL][NMeT][Sar]))",
    "discrete_label": "NOT MET"
  },
  {
    "compound": "CC[C@H](C)[C@@H]1NC(=O)[C@@H]2CCCN2C(=O)[C@H](C(C)C)N(C)C(=O)[C@H](CC(C)C)NC(=O)[C@@H](C)N(C)C(=O)C[C@@H](C)NC(=O)[C@H](C(C)C)N(C)C(=O)[C@H](Cc2ccccc2)N(C)C(=O)[C@H](COC(C)(C)C)NC(=O)[C@H](CC(C)C)N(C)C(=O)[C@H](C)N(C)C(=O)[C@H](CC(C)C)N(C)C(=O)[C@H]([C@@H](C)O)NC(=O)[C@H](Cc2ccccc2)N(C)C1=O [pd054] (cyclo(I[NMeF]T[NMeL][NMeA][NMeL]S(tBu)[NMeF][NMeV][d(β3hA)][dNMeA]L[NMeV]P))",
    "discrete_label": "MET"
  }
]

Dear colleague, could you confirm whether CC[C@@H]1NC(=O)[C@H](CC(C)C)N(C)C(=O)[C@H](Cc2ccccc2)N(C)C(=O)[C@H](CC(C)C)N(C)C(=O)[C@H](C)NC(=O)C[C@@H](C(=O)N2CCCCC2)NC(=O)[C@H](C(C)C)N(C)C(=O)[C@@H]2CCCN2C(=O)CCN(C)C(=O)[C@H](CC(C)C)NC(=O)[C@H]([C@@H](C)CC)N(C)C(=O)[C@H]([C@@H](C)O)NC(=O)[C@H](Cc2ccccc2)N(C)C1=O [pd112] (A[NMeL][NMeF][NMeL][Abu][NMeF]T[NMeI]L[NMeβAla]P[NMeV]D-Piperidide; lactam N-13) has microsomal CLint at 1 µM at or above 20 µL/min/mg? MET

Is reported microsomal CLint at 1 µM greater than or equal to 20 µL/min/mg here: CC[C@H](C)[C@@H]1NC(=O)CN(C)C(=O)C[C@@H](C(=O)N2CCCCC2)N(C)C(=O)[C@H](CC(C)C)NC(=O)[C@H](CC(C)C)N(C)C(=O)[C@H]([C@@H](C)O)NC(=O)[C@H](Cc2ccccc2)N(C)C(=O)[C@H](CC(C)C)NC(=O)[C@H](C(C)C)N(C)C(=O)[C@H](C)N(C)C(=O)[C@H](CC(C)C)N(C)C(=O)[C@H](CCc2ccccc2)NC(=O)[C@H](CC(C)C)N(C)C1=O [pd160] ([Sar]I[NMeL][hPhe][NMeL][NMeA][NMeV]L[NMeF]T[NMeL]L[NMeD]-Piperidide; lactam N-13) MET
